assay: recombinant barcode read abundance after kanamycin selection (control-corrected) (log10(CPM+1)); higher = more efficient recombination; sequences stand for … in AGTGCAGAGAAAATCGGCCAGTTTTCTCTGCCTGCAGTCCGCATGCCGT…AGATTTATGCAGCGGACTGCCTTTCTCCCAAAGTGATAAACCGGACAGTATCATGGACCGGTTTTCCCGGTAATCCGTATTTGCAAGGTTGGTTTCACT; site = the 11-nt target;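 note: IS621 recombinase and bridge RNA in Escherichia coli cells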
Classify as follows. Reported recombinant barcode read abundance (log10) greater than or equal to 0.3: true. Reported recombinant barcode read abundance (log10) below: false.

sequence-text	cat
TGGGGCCCTTGGGTTCTAACCTGTTGCCT (site TGGGGCCCTAG)	true
TTCTGAGCTTGGGTTCTAACCTGTTGCCT (site TTCTGAGCTAG)	false
CACACGTCTTGGGTTCTAACCTGTTGCCT (site CACACGTCTAG)	true
TGACGCTCTTGGGTTCTAACCTGTTGCCT (site TGCCGCTCTAG)	false
TGCCCCGCTTGGGTTCTAACCTGTTGCCT (site ACTTAGTCTGA)	true
TTAGACCCTTGGGTTCTAACCTGTTGCCT (site CTAGACCCTAG)	true
TGTTGTCCTTGGGTTCTAACCTGTTGCTG (site TGTTGTCCTCA)	false
ATGGCGCCTTGGGTTCTAACCTGTTGCCT (site AGGGCGCCTAG)	false
CGGCTACCTTGGGTTCTAACCTGTTGCCT (site CAGCTACCTAG)	false
